assay: yeast display, Sf9 membrane polyspecificity reagent, FACS + sequencing; frameworks hold sequencing errors
METRIC: polyreactivity (PSR sort gate)

Here is how some sequences turned out for polyreactivity (PSR sort gate).
# SEQUENCE CONTENT, polyreactivity (PSR sort gate)
records = [
    ("QVQLVESGGGLVQAGGSLRFSCAASGITFSSYGMGWYRQAPGKERELVAAISWDSGSTYYADSVKGRFTISRDNAKNTVYLQMNSLKPEQTAVYYCNAVYYSVYRFDYWGQGTQVTVSS", "high polyreactivity"),
    ("QVQLVESGGGLVQAGGSLRLSCAASGFTFYPYSMGWYRQAPGKERELVAAIRGSGGSTHYADSVKGRFTISRDNAKNTVYLQMNSLKPEDTAVYYCAARIRGYRQYGTYYYWGQGTQVTVSS", "high polyreactivity"),
    ("QVQHVESGGGLVQAGGSLRLICAASGSTFGNYAMGWYRQAPGKERELVAAISTSGGSTYYADSVKGRFTISRDNAKNTVYLQMNSLKPEDTAVYYCANRLVRGRSRAVSDYYWGQGTQVTVSS", "high polyreactivity"),
    ("QVQLVESGGGLVQAGGSLRLSCAASGRIFGGYTMGWYRQAPGKERELVAAITSGGSTNYADSVKGRFTISRDNAKNTVYLQMNSLKPEDTAVYYCAATYDGTYDYWGQGTQVTVSS", "high polyreactivity"),
    ("QVQLVESGGGLVQAGGSLRLSCAASGIIFTGNAMGWYIQAPGKERELVAAITSGDTTNYADSVKGRFTISRDNAKNTVYLQMNSLKPEDSAVYYCAKELQVRQAGDYWGQGTQVTVSS", "low polyreactivity"),
]

Give measured polyreactivity (PSR sort gate) for every item shown.
1. QVQLVESGGGLLQAGGSLRLICAASGFIVRRYAMGWYRQAPGKARELVAAITSGGSTYYADSVKGRFTISRDNAQYTVYLQFNSMKPVDTADYYCNAYFTGKWYDYWGQGTQVTVSS
2. QVQLVESGGGLVQAGGSLRLSCAASGRIFTIYTMGWYRQAPGKERELVAAISVNGGRTYYADSVKGRFTISRDNAKNTVYLQMNSLKPEDTAVYYCAARRRFGYHQQRYDYWGQGTQVTVSS
3. QVQLVESGGGLVQAGGSLRLICAASGNIFDLYAMGWYRQAPGKERELVAAITRSSSRTYYADSVKGRFTISRDNAKNTVSLQMNSLKPEDTAVYYCRAKQVNRVDYWGQGTQVTVSS
4. QVQLVESGGGLVQAGGSLRLSCAASGSTFLYNTMGWYRQAPGKERELVATITSRGDRTYYADSVKGRFTISRDNAKNTVYLQMNSLNPEDTGVYYCARDYGPYLSPENPAPMDYWGQGTQVTVSS
5. QVQLVDSGGGLVQAGGSLRLSCAASGSTFESYAMGWDRQAPGKERELVAAISTNGGRTRYADSVKGRFTISRDNAKNTVYLQMNSLKPVDTAVYYCATYVRGVYASSGYDYWGQGTQVTVSS
6. QVQLVESGGGLVQAGGSLRLSCAASGFTFRWYTMGWYRQAPGKERELFAAITGSGCTTYYADSVKGRFTISRDNAKNTVYLQMNSLKPEDTAVYYCAVVSGSLRTRYTYYYWGLGTQVTVSS

Result:
["high polyreactivity", "high polyreactivity", "high polyreactivity", "low polyreactivity", "high polyreactivity", "high polyreactivity"]
